Data provenance: patent US5466671A

Test system: M. morganii
Assay: Minimal inhibitory concentration (liquid culture)
Settings: inoculum 400 CFU/ml; a-b = highest concentration with growth - lowest without growth
Residues, ends and D or L forms follow the SMILES beside them.
assay-metric: minimal inhibitory concentration (MIC)

Query string: Looking for the measured minimal inhibitory concentration (MIC) of CC(C)C[C@H](NC(=O)[C@H](CCCNC(=N)N)NC(=O)[C@@H]1CCCN1C(=O)[C@H](Cc1c[nH]cn1)NC(=O)[C@@H]1CCCN1C(=O)[C@@H]1CCCN1C(=O)[C@H](CCCNC(=N)N)NC(=O)[C@@H]1CCCN1C(=O)[C@@H]1CCCN1C(=O)[C@@H](NC(=O)[C@H](CCC(N)=O)NC(=O)[C@H](CCC(N)=O)NC(=O)[C@@H]1CCCN1C(=O)[C@H](CCCNC(=N)N)NC(=O)[C@@H]1CCCN1C(=O)[C@H](CCCCN)NC(=O)[C@@H](N)CC(N)=O)C(C)C)C(=O)O [Yj -S] (H-NKPRPQQVPPRPPHPRL-OH) , can you help?
Result string: 1 to 5 µg/mL

----------
System: E. coli Apid^R
Assay: Minimal inhibitory concentration (liquid culture)
Type: cell-based
Details: inoculum 1000 CFU/ml; a-b = highest concentration with growth - lowest without growth
Residues, ends and D or L forms follow the SMILES beside them.
assay-metric: minimal inhibitory concentration (MIC)

CC(C)C[C@H](NC(=O)[C@H](CCCNC(=N)N)NC(=O)[C@@H]1CCCN1C(=O)[C@H](Cc1c[nH]cn1)NC(=O)[C@@H]1CCCN1C(=O)[C@@H]1CCCN1C(=O)[C@H](CCCNC(=N)N)NC(=O)[C@@H]1CCCN1C(=O)[C@@H]1CCCN1C(=O)[C@@H](NC(=O)[C@H](CCC(N)=O)NC(=O)[C@H](CCC(N)=O)NC(=O)[C@@H]1CCCN1C(=O)[C@@H](N)CCCNC(=N)N)C(C)C)C(=O)O [Ho -] (H-RPQQVPPRPPHPRL-OH)    > 40 µg/mL
CC(C)C[C@H](NC(=O)[C@H](CCCNC(=N)N)NC(=O)[C@@H]1CCCN1C(=O)[C@H](Cc1c[nH]cn1)NC(=O)[C@@H]1CCCN1C(=O)[C@@H]1CCCN1C(=O)[C@H](CCCNC(=N)N)NC(=O)[C@@H]1CCCN1C(=O)[C@@H]1CCCN1C(=O)[C@@H](NC(=O)[C@H](CCC(N)=O)NC(=O)[C@H](CCC(N)=O)NC(=O)[C@@H]1CCCN1C(=O)[C@H](CCCNC(=N)N)NC(=O)[C@@H]1CCCN1C(=O)[C@H](CCCCN)NC(=O)[C@@H](N)CC(N)=O)C(C)C)C(=O)O [Yj -S] (H-NKPRPQQVPPRPPHPRL-OH)    5 to 10 µg/mL
CC[C@H](C)[C@H](NC(=O)[C@@H]1CCCN1C(=O)[C@H](C)NC(=O)[C@@H]1CCCN1C(=O)[C@H](CCCNC(=N)N)NC(=O)[C@@H]1CCCN1C(=O)[C@H](CCCCN)NC(=O)[C@@H](N)CC(N)=O)C(=O)N[C@@H](CCCCN)C(=O)N1CCC[C@H]1C(=O)N[C@@H](CCCNC(=N)N)C(=O)N1CCC[C@H]1C(=O)N1CCC[C@H]1C(=O)N[C@@H](Cc1c[nH]cn1)C(=O)N1CCC[C@H]1C(=O)N[C@@H](CCCNC(=N)N)C(=O)N[C@@H](CC(C)C)C(=O)O [Cd 2-] (H-NKPRPAPIKPRPPHPRL-OH)    5 to 10 µg/mL
CC(C)C[C@H](NC(=O)[C@H](CCCNC(=N)N)NC(=O)[C@@H]1CCCN1C(=O)[C@H](Cc1c[nH]cn1)NC(=O)[C@@H]1CCCN1C(=O)[C@@H]1CCCN1C(=O)[C@H](CCCNC(=N)N)NC(=O)[C@@H]1CCCN1C(=O)[C@@H]1CCCN1C(=O)[C@@H](NC(=O)[C@H](CCC(N)=O)NC(=O)[C@H](CCC(N)=O)NC(=O)[C@@H]1CCCN1C(=O)[C@H](CCCNC(=N)N)NC(=O)[C@@H]1CCCN1C(=O)[C@H](CCCCN)NC(=O)CN)C(C)C)C(=O)O [Ho +, G K P R P Q Q V P P R P P H P R L] (H-GKPRPQQVPPRPPHPRL-OH)    1 to 5 µg/mL

Query string: API: value(readout=minimal inhibitory concentration (MIC), system=E. coli Apid^R) for record CC[C@H](C)[C@H](NC(=O)[C@@H]1CCCN1C(=O)[C@H](C)NC(=O)[C@@H]1CCCN1C(=O)[C@H](CCCNC(=N)N)NC(=O)[C@@H]1CCCN1C(=O)[C@H](CCCNC(=N)N)NC(=O)[C@@H](N)CC(N)=O)C(=O)N[C@@H](CCC(N)=O)C(=O)N1CCC[C@H]1C(=O)N[C@@H](CCCNC(=N)N)C(=O)N1CCC[C@H]1C(=O)N1CCC[C@H]1C(=O)N[C@@H](Cc1c[nH]cn1)C(=O)N1CCC[C@H]1C(=O)N[C@@H](CCCNC(=N)N)C(=O)N[C@@H](CC(C)C)C(=O)O [Cd 1-] (H-NRPRPAPIQPRPPHPRL-OH)
Result string: > 40 µg/mL

Query string: Repeat for the following compound: CC[C@H](C)[C@H](NC(=O)[C@@H]1CCCN1C(=O)[C@H](C)NC(=O)[C@@H]1CCCN1C(=O)[C@H](CCCNC(=N)N)NC(=O)[C@@H]1CCCN1C(=O)[C@H](CCCCN)NC(=O)[C@@H](N)CO)C(=O)N[C@@H](CCCCN)C(=O)N1CCC[C@H]1C(=O)N[C@@H](CCCNC(=N)N)C(=O)N1CCC[C@H]1C(=O)N1CCC[C@H]1C(=O)N[C@@H](Cc1c[nH]cn1)C(=O)N1CCC[C@H]1C(=O)N[C@@H](CCCNC(=N)N)C(=O)N[C@@H](CC(C)C)C(=O)O [Cd 3-] (H-SKPRPAPIKPRPPHPRL-OH)
Result string: 5 to 10 µg/mL

Query string: Repeat for the following compound: CC(C)C[C@H](NC(=O)[C@H](CCCNC(=N)N)NC(=O)[C@@H]1CCCN1C(=O)[C@H](Cc1c[nH]cn1)NC(=O)[C@@H]1CCCN1C(=O)[C@@H]1CCCN1C(=O)[C@H](CCCNC(=N)N)NC(=O)[C@@H]1CCCN1C(=O)[C@H](C)NC(=O)[C@@H]1CCCN1C(=O)[C@@H](NC(=O)[C@H](Cc1ccc(O)cc1)NC(=O)[C@@H](NC(=O)[C@@H]1CCCN1C(=O)[C@H](CCCNC(=N)N)NC(=O)[C@@H](N)CC(N)=O)[C@@H](C)O)C(C)C)C(=O)O [Ck A] (H-NRPTYVPAPRPPHPRL-OH)
Result string: > 40 µg/mL

Query string: Repeat for the following compound: CC[C@H](C)[C@H](NC(=O)[C@H](Cc1ccc(O)cc1)NC(=O)[C@@H](NC(=O)[C@@H]1CCCN1C(=O)[C@H](CCCNC(=N)N)NC(=O)[C@H](CC(N)=O)NC(=O)[C@H](C)N)C(C)C)C(=O)N1CCC[C@H]1C(=O)N1CCC[C@H]1C(=O)N1CCC[C@H]1C(=O)N[C@@H](CCCNC(=N)N)C(=O)N1CCC[C@H]1C(=O)N1CCC[C@H]1C(=O)N[C@@H](Cc1c[nH]cn1)C(=O)N1CCC[C@H]1C(=O)N[C@@H](CCCNC(=N)N)C(=O)N[C@@H](CC(C)C)C(=O)O [Bb+A] (H-ANRPVYIPPPRPPHPRL-OH)
Result string: > 40 µg/mL

----------
System: Agrobacterium tumefaciens
Test: Inhibition zone assay (agar plate)
Assay type: cell-based
Settings: agar plate, 50 nanomoles/well, 3 mm wells
Residues, ends and D or L forms follow the SMILES beside them.
assay-metric: inhibition zone diameter (number of plus signs)

CC(C)C[C@H](NC(=O)[C@H](CCCNC(=N)N)NC(=O)[C@@H]1CCCN1C(=O)[C@H](Cc1c[nH]cn1)NC(=O)[C@@H]1CCCN1C(=O)[C@@H]1CCCN1C(=O)[C@H](CCCNC(=N)N)NC(=O)[C@@H]1CCCN1C(=O)[C@H](C)NC(=O)[C@@H]1CCCN1C(=O)[C@@H](NC(=O)[C@H](Cc1ccc(O)cc1)NC(=O)[C@@H](NC(=O)[C@@H]1CCCN1C(=O)[C@H](CCCNC(=N)N)NC(=O)[C@@H](N)CC(N)=O)[C@@H](C)O)C(C)C)C(=O)O [Ck A] (H-NRPTYVPAPRPPHPRL-OH)    ++++ ((++++) 15-19 mm)
CC[C@H](C)[C@H](NC(=O)[C@H](Cc1ccc(O)cc1)NC(=O)[C@@H](NC(=O)[C@@H]1CCCN1C(=O)[C@H](CCCNC(=N)N)NC(=O)[C@H](CC(N)=O)NC(=O)[C@H](C)N)C(C)C)C(=O)N1CCC[C@H]1C(=O)N1CCC[C@H]1C(=O)N1CCC[C@H]1C(=O)N[C@@H](CCCNC(=N)N)C(=O)N1CCC[C@H]1C(=O)N1CCC[C@H]1C(=O)N[C@@H](Cc1c[nH]cn1)C(=O)N1CCC[C@H]1C(=O)N[C@@H](CCCNC(=N)N)C(=O)N[C@@H](CC(C)C)C(=O)O [Bb+A] (H-ANRPVYIPPPRPPHPRL-OH)    ++++ ((++++) 15-19 mm)
